test system: MDA-MB-231 breast; assay: NCI tumour cell line growth inhibition, 48 h; in the data active means GI50 below about 0.43 µM; inactive means the rest
Valid outcomes are listed here; reply with one: Y (active), N (inactive)

CC[C@@H](C)[C@H]([C@H](CC(=O)N1CCC[C@@H]1[C@@H](OC)[C@H](C)C(=O)N[C@H](Cc1ccccc1)c1nccs1)OC)N(C)C(=O)[C@H](NC(=O)[C@@H](C(C)C)N(C)C)C(C)C :: Y

Query string: # outcome recorded in this test, key = `COc1ccc2[nH]c(-c3cccc(N(C)C)c3)cc(=O)c2c1`
Result string: N

Query string: # outcome recorded in this test, key = `COc1ccc2c(c1OC)-c1c(c3ccc([N+](=O)[O-])cc3c(=O)n1CCCN=[N+]=[N-])C2=O`
Result string: N

Query string: # outcome recorded in this test, key = `C[C@@]1(c2ncncc2F)NC(=O)c2cc(-c3cn[nH]c3)ccc21`
Result string: N

Query string: # outcome recorded in this test, key = `O=C(NCCCNC(=O)OCc1ccc2c(Br)cc(Br)c(O)c2n1)OCc1ccc2c(Br)cc(Br)c(O)c2n1`
Result string: N

Query string: # outcome recorded in this test, key = COc1cc(/C=C2\CC3C4CC=C5C[C@@H](N6CCCC6)CC[C@]5(C)C4CC[C@]3(C)[C@H]2OC(C)=O)ccc1OCCN1CCCCC1 (stereo partly drawn)
Result string: N

Query string: # outcome recorded in this test, key = `C#CCOc1ccc2ncnc(Nc3ccc(NC(=O)CCl)cc3)c2c1`
Result string: N

Query string: # outcome recorded in this test, key = COc1ccc(C2C(c3ccccc3)C(=O)N2c2cc(OC)c(OC)c(OC)c2)cc1I (stereo not drawn)
Result string: N
